Solubility overview
Test: Solubility in PBS
Type: physicochemical
Conditions: Solubility (uM)
Your answer should be a plain number; it is taken to be in µM.

The following molecules have reported results that may help.
[
  {
    "MOLECULE": "CC(=O)N1CCC[C@]12CC=CCCCC1(CCCC=CCCCOC(=O)N3CC[C@@](C(=O)N[C@@H](Cc4ccsc4)C(=O)N[C@@H](Cc4csc5ccccc45)C(=O)N[C@@H](Cc4c[nH]cn4)C(N)=O)(C3)NC(=O)[C@H]([C@@H](C)O)NC(=O)[C@H](Cc3ccccc3)NC(=O)[C@H](C)NC(=O)[C@H](C)NC(=O)[C@H](CC(=O)O)NC(=O)[C@H](CC(=O)O)NC1=O)NC(=O)[C@H](CC(C)(C)C)NC(=O)[C@H](CC(=O)O)NC2=O (stereo partly drawn)",
    "VALUE UNIT": "µM",
    "Solubility": 39
  },
  {
    "MOLECULE": "CC(=O)N1CCC[C@]12CC=CCCCC1(CCCC=CCCCOC(=O)N3CC[C@@](C(=O)N[C@@H](Cc4ccccc4Cl)C(=O)N[C@@H](Cc4csc5ccccc45)C(=O)N[C@@H](CO)C(N)=O)(C3)NC(=O)[C@H](CC(C)C)NC(=O)[C@H](Cc3ccccc3)NC(=O)[C@H](C)NC(=O)[C@H](C)NC(=O)[C@H](CC(=O)O)NC(=O)[C@H](CC(=O)O)NC1=O)NC(=O)[C@H](Cc1cccc3ccccc13)NC(=O)[C@H](CC(=O)O)NC2=O (stereo partly drawn)",
    "VALUE UNIT": "µM",
    "Solubility": 13
  }
]

Please examine the following record next.
## Input Please look up its Solubility: CC(=O)N1CCC[C@]12CC=CCCCC1(CCCC=CCCCOC(=O)N3CC[C@@](C(=O)N[C@@H](Cc4ccsc4)C(=O)N[C@@H](Cc4csc5ccccc45)C(=O)N[C@@H](CCC(N)=O)C(N)=O)(C3)NC(=O)[C@H](CC(N)=O)NC(=O)[C@H](Cc3ccccc3)NC(=O)[C@H](CCCCNC(=O)C(C)(c3ccccc3)c3ccccc3)NC(=O)[C@H](C)NC(=O)[C@H](CC(=O)O)NC(=O)[C@H](CC(=O)O)NC1=O)NC(=O)[C@H](CC(C)(C)C)NC(=O)[C@H](CC(=O)O)NC2=O (stereo partly drawn)
## Output 43
